- study conditions: in dichloromethane, 304.15 K
test readout: solubility (mole fraction)
Answers are plain numbers.

Request: Quick check: solubility (mole fraction) of C=CC(=O)NC(C)(C)C ?
Response: 0.016

* * *

- study conditions: in dichloromethane, 285.15 K
test readout: solubility (mole fraction)
Answers are plain numbers.

Request: Report solubility (mole fraction) for C=CC(=O)NC(C)(C)C please.
Response: 0.0072

* * *

- study conditions: in ethanol, 297.15 K
test readout: solubility (mole fraction)
One number for each entry.

Request: // lookup solubility (mole fraction) for C=CC(=O)NC(C)(C)C
Response: 0.0024

* * *

- study conditions: in DMF, 308.15 K
test readout: solubility (mole fraction)
One number for each entry.

Request: Request the reported solubility (mole fraction) associated with C=CC(=O)NC(C)(C)C
Response: 0.0403

* * *

- study conditions: in DMF, 298.15 K
test readout: solubility (mole fraction)
Answers are plain numbers.

Request: Could you tell me which solubility (mole fraction) is on file for C=CC(=O)NC(C)(C)C ?
Response: 0.0283

* * *

- study conditions: in formamide, 284.15 K
test readout: solubility (mole fraction)

Request: Give its solubility (mole fraction) value. Item: C=CC(=O)NC(C)(C)C
Response: 0.00078

* * *

- study conditions: in DMF, 348.15 K
test readout: solubility (mole fraction)
Numbers only.

Request: Record request: solubility (mole fraction) value, item C=CC(=O)NC(C)(C)C
Response: 0.138

* * *

- study conditions: in water, 303.15 K
test readout: solubility (mole fraction)
Answers are plain numbers.

Request: Item under review: C=CC(=O)NC(C)(C)C . Reported solubility (mole fraction)?
Response: 0.00111

* * *

- study conditions: in ethyl acetate, 305.15 K
test readout: solubility (mole fraction)
One number for each entry.

Request: // query solubility (mole fraction) value for entry C=CC(=O)NC(C)(C)C
Response: 0.0225

* * *

- study conditions: in ethanol, 287.95 K
test readout: solubility (mole fraction)
One number for each entry.

Request: // returns reported solubility (mole fraction) for input C=CC(=O)NC(C)(C)C
Response: 0.00152

* * *

- study conditions: in dichloromethane, 293.15 K
test readout: solubility (mole fraction)
Give bare numbers.

Request: Quick one: solubility (mole fraction) of C=CC(=O)NC(C)(C)C ?
Response: 0.0106

* * *

- study conditions: in DMAc, 348.15 K
test readout: solubility (mole fraction)
Answers are plain numbers.

Request: Reported solubility (mole fraction) for C=CC(=O)NC(C)(C)C : what is it?
Response: 0.364

* * *

- study conditions: in ethyl acetate, 287.15 K
test readout: solubility (mole fraction)
Answers are plain numbers.

Request: What value of measured solubility (mole fraction) is listed for C=CC(=O)NC(C)(C)C ?
Response: 0.015

* * *

- study conditions: in ethanol, 294.15 K
test readout: solubility (mole fraction)
Answers are plain numbers.

Request: Reported solubility (mole fraction) for C=CC(=O)NC(C)(C)C : what is it?
Response: 0.0021

* * *

- study conditions: in ethanol, 300.15 K
test readout: solubility (mole fraction)

Request: Find the recorded solubility (mole fraction) belonging to C=CC(=O)NC(C)(C)C and report it.
Response: 0.00283

* * *

- study conditions: in formamide, 320.15 K
test readout: solubility (mole fraction)
Answers are plain numbers.

Request: Quick one: solubility (mole fraction) for C=CC(=O)NC(C)(C)C ?
Response: 0.0043

The origin of these recorded values is BigSolDB 2.1.
